B1: Androgen receptor, residues 557 to 632; numbered along this chain, P10275 (parent)
chain: QKTCLICGDEASGCHYGALTCGSCKVFFKRAAEGKQKYLCASRNDCTIDKFRRKNCPSCRLRKCYEAGMTLGARKL

Variants of: B1
Test: abundance fitness (aPCA) (normalised: wild type 0, dead -1); higher = more abundant; growth selection in yeast, the domain comes from the species named
Conditions: Homo sapiens
variants and their reported abundance fitness
Would you mind answering with just the numeric figure?

QKTCLICGDEASGCHYGALTCGSCKVFFKRAAEGKQKYLCASRNDCTIDKFDRKNCPSCRLRKCYEAGMTLGARKL [R52D] : 0.047

Given the entry QKTWLICGDEASGCHYGALTCGSCKVFFKRAAEGKQKYLCASRNDCTIDKFRRKNCPSCRLRKCYEAGMTLGARKL [C4W] , report its measured abundance fitness.
-0.964

Given the entry QKTCLICGDEASGCHYGALTCGSCKVFFKRAAEGKQKYLCASRNDCTIDKFRRKICPSCRLRKCYEAGMTLGARKL [N55I] , report its measured abundance fitness.
-0.075

Given the entry QKTCLICGDEASGCHYGALTCGSCKVFFKRAAEGKQKYLCASRNDCTIDKFRRKNCPSCRLRHCYEAGMTLGARKL [K63H] , report its measured abundance fitness.
-0.423

Given the entry QKTCLICGDEASGCHYGALPCGSCKVFFKRAAEGKQKYLCASRNDCTIDKFRRKNCPSCRLRKCYEAGMTLGARKL [T20P] , report its measured abundance fitness.
-0.724
